Measured values drawn from PubChem BioAssay for this set.

Target: Tumor necrosis factor receptor superfamily member 10B (Homo sapiens)
Experiment: caspase-8 TRAIL sensitization, hit retest, confirmation, cell-based, NB7+caspase-8, with/without TRAIL, luminescence panel (AID 651596)
Details: NB7 neuroblastoma + caspase-8, TRAIL sensitization, luminescence viability, with TRAIL, mean of runs, at 10 µM, stronger effect = higher value
measured parameter: activity
Number plus unit, in that order.

Q) May I ask what activity has been recorded for COc1ccc(C2C(C(=O)N3CCN(c4ccccc4F)CC3)c3ccccc3C(=O)N2C)cc1 (stereo unspecified) ?
A) 74.5%

Q) May I ask what activity has been recorded for Cn1c(NC(=O)c2ccc(F)cc2)nc2ccccc21 ?
A) 45.1%

Q) May I ask what activity has been recorded for O=C(Nc1ccc2ccccc2c1)c1ccccc1O ?
A) 64.2%

Q) May I ask what activity has been recorded for O=C(CCl)N1N=C(c2ccco2)CC1c1cccs1 (stereo unspecified) ?
A) 98.5%

Q) May I ask what activity has been recorded for Cc1ccc(Nc2nc(CSc3nnnn3C)cs2)cc1 ?
A) 23.2%

Q) May I ask what activity has been recorded for COc1ccccc1-c1cc(C(=O)NC2CCN(C)CC2)c2ccc(Cl)c(C)c2n1 ?
A) 89.2%

Q) May I ask what activity has been recorded for C(=Cc1c[nH]c2ccccc12)c1ccc2ccccc2n1 ?
A) 61.1%

Q) May I ask what activity has been recorded for Cc1ccc2nc(-c3ccc(N)cc3)sc2c1 ?
A) 83.2%

Q) May I ask what activity has been recorded for C#Cc1cc(N2CCN(C(=O)c3ccoc3)CC2)n2nc(-c3cccc(Cl)c3)cc2n1 ?
A) 98.4%

Q) May I ask what activity has been recorded for C[n+]1c(-c2ccccc2)cc2c(=Cc3ccccc3)c3ccccc3n21 ?
A) 73.1%

Q) May I ask what activity has been recorded for O=C(/C=C/c1ccc(Cl)cc1Cl)N1CCc2ccccc21 ?
A) 47.9%
